Every entry's value here was drawn from patent US10975056B2.

- Test system: erythroid progenitor cells (EPCs)
- TEST_METHOD_NOTES: Fetal hemoglobin (HbF) ELISA in day 7 erythroid progenitor cells;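 note: for fetal hemoglobin induction normalized to vehicle-treated cells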
- Format: cell-based, human
- CONDITION: Homo sapiens, Erythroid progenitor cell, HbF ELISA, day 7 EPCs, 5 days; read-out: EPC ELISA (pEC50 category) (converted)
# Lookup of reported EC50 keyed by entry

input: Given the compound CCc1c(C#N)c(SC(C(N)=O)c2ccccc2)nc(N2CCC(CN)C2)c1C#N (stereo not shown) , what is its reported EC50?
output: < 316 nM

* * *

- TARGET_DESC: DNMT1 (Homo sapiens, UniProt P26358)
- Sequence (P26358 whole entry, looked up): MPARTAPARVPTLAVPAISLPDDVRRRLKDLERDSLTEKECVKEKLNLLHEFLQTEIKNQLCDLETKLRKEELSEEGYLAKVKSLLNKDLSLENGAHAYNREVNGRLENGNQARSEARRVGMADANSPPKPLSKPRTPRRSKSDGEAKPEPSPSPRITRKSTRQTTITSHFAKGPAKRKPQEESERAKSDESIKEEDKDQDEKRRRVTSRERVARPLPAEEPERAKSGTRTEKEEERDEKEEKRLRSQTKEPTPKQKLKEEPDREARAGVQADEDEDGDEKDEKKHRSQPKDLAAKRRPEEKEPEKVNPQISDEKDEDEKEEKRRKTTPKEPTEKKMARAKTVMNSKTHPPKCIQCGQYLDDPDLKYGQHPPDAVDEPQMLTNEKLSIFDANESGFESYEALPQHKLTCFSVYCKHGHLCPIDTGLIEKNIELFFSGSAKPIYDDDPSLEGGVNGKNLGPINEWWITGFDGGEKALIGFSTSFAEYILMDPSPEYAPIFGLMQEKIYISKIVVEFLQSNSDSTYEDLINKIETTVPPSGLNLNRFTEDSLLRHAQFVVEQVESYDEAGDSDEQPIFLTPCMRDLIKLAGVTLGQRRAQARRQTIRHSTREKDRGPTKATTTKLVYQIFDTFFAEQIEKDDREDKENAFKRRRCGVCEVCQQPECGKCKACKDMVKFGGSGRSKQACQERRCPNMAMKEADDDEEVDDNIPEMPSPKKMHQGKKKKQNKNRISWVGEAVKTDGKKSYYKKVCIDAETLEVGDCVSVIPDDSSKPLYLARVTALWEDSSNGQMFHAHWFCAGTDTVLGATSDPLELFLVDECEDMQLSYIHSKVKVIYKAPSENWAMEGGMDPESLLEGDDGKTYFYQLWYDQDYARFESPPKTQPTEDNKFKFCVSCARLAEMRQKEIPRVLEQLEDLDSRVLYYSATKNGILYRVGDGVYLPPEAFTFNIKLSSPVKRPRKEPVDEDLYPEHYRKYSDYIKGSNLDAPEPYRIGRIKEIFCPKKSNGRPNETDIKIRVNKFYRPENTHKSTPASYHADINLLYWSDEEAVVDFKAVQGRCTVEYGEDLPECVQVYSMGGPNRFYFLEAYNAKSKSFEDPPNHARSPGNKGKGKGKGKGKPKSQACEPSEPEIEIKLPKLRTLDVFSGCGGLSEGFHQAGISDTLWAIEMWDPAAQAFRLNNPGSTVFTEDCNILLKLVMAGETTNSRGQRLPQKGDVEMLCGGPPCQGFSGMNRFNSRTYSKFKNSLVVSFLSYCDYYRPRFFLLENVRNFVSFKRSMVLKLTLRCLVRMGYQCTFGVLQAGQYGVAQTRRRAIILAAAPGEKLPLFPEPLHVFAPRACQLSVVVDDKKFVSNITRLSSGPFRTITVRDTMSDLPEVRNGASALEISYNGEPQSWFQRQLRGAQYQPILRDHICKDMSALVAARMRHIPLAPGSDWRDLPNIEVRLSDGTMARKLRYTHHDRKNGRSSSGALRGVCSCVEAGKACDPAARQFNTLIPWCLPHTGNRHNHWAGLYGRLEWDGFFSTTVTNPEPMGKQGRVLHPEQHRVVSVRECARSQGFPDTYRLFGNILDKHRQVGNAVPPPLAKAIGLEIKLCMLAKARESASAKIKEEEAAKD
- TEST_METHOD_NOTES: DNMT1 biochemical activity, breaklight assay and/or SPA assay
- CONDITION: binned activity in either the breaklight or the SPA assay
Structures can show the parent of a compound that is named as a salt.
READOUT_KIND: DNMT1 BioChemical (pIC50 category)

Reference set (6 entries):
CCc1c(C#N)c(SC(C(N)=O)c2ccccc2)nc(N(C)CC(=O)N2CCO[C@H](CO)C2)c1C#N (stereo partly shown) :: D (Category D: ≥6.5)
CCc1c(C#N)c(SC(C(N)=O)c2ccccc2)nc(N2CC[C@@](F)(CN)C2)c1C#N (stereo partly shown) :: D (Category D: ≥6.5)
CCc1c(C#N)c(SC(C(N)=O)c2ccccc2)nc(N2CCC(N3CCC[C@@H]3CO)CC2)c1C#N (single isomer, unassigned) :: D (Category D: ≥6.5)
CCc1c(C#N)c(SC(C(N)=O)c2ccccc2)nc(N2CCN(C(=O)C3(N)CCOCC3)CC2)c1C#N (stereo not shown) [Example 141, Trifluoroacetic Acid Salt] :: D (Category D: ≥6.5)
CCc1c(C#N)c(SC(C(N)=O)c2ccccc2)nc(N2CCC3(CCCNC3)CC2)c1C#N (stereo not shown) :: D (Category D: ≥6.5)
CCc1c(C#N)c(SC(C(N)=O)c2ccccc2)nc(N2CCC[C@@H](CNCC(C)(C)C)C2)c1C#N (stereo partly shown) :: D (Category D: ≥6.5)

input: Please report the recorded DNMT1 BioChemical (pIC50 category) for CCc1c(C#N)c(SCc2ccc(N(C)S(C)(=O)=O)cc2)nc(N(C)CCN)c1C#N .
output: D (Category D: ≥6.5)
